test: Selectivity index, ratio of CC50 for African green monkey Vero cells to EC50 for VSV infected in Vero cells
Assay type: toxicity, cell-based
conditionNotes: read-out: Ratio CC50/EC50
measureName: selectivity ratio

input: Request the reported selectivity ratio associated with O=c1[nH]c(=O)n([C@@H]2O[C@H](CO)[C@@H](O)[C@@H]2O)cc1C#Cc1ccc2c3cccc4cccc(c5cccc1c52)c43
output: > 3000

Could you now look at the following molecule, please?
input: Request the reported selectivity ratio associated with O=c1[nH]c(=O)n([C@H]2C[C@H](O)[C@@H](CO)O2)cc1C#Cc1ccc2c3cccc4cccc(c5cccc1c52)c43
output: > 3000

---

test: Selectivity index, ratio of CC50 for human Huh7.5 cells to EC50 for HCV JFH1 infected in Huh7.5 cells
Assay type: toxicity, cell-based
conditionNotes: read-out: Ratio CC50/EC50
measureName: selectivity ratio

input: Request the reported selectivity ratio associated with O=c1[nH]c(=O)n([C@H]2C[C@H](O)[C@@H](CO)O2)cc1C#Cc1ccc2c3cccc4cccc(c5cccc1c52)c43
output: > 3000

input: Request the reported selectivity ratio associated with O=c1[nH]c(=O)n([C@@H]2O[C@H](CO)[C@@H](O)[C@@H]2O)cc1C#Cc1ccc2c3cccc4cccc(c5cccc1c52)c43
output: > 3000

---

test: Cytotoxicity against human RD cells assessed as reduction in cell viability after 7 days by microscopic method
Format: cell-based
Catalogue of CC50 at 168 h readings, one per entry.
Use µM as the unit, but write only the number.

// worked examples, CC50 at 168 h included
input: Request the reported CC50 at 168 h associated with O=C(O)Cn1cc(C#Cc2ccc3c4cccc5cccc(c6cccc2c63)c54)c(=O)[nH]c1=O
output: 65

input: Request the reported CC50 at 168 h associated with CC(C)(C)C(=O)OCn1c(=O)c(C#Cc2ccc3c4cccc5cccc(c6cccc2c63)c54)cn(CC(=O)NCCCCCO)c1=O
output: 10

Could you now look at the following compound, please?
input: Request the reported CC50 at 168 h associated with CC(C)(C)C(=O)OCn1c(=O)c(C#Cc2ccc3c4cccc5cccc(c6cccc2c63)c54)cn(CC(=O)NCCCO)c1=O
output: 10

---

test: Cytotoxicity against human RD cells assessed as reduction in cell viability after 24 hrs by microscopic method
Type: cell-based
measureName: CC50 at 24 h (µM)
Use µM as the unit, but write only the number.

// worked examples, CC50 at 24 h included
input: Request the reported CC50 at 24 h associated with CC(C)(C)C(=O)OCn1c(=O)c(C#Cc2ccc3c4cccc5cccc(c6cccc2c63)c54)cn(CC(=O)NCCCCO)c1=O
output: 19

input: Request the reported CC50 at 24 h associated with CCCCNC(=O)Cn1cc(C#Cc2ccc3c4cccc5cccc(c6cccc2c63)c54)c(=O)[nH]c1=O
output: 76

input: Request the reported CC50 at 24 h associated with CC(C)(C)C(=O)OCn1c(=O)c(C#Cc2ccc3c4cccc5cccc(c6cccc2c63)c54)cn(CC(=O)NCCO)c1=O
output: 19

input: Request the reported CC50 at 24 h associated with CC(C)(C)C(=O)OCn1c(=O)c(C#Cc2ccc3c4cccc5cccc(c6cccc2c63)c54)cn(CC(=O)N(CCO)CCO)c1=O
output: 19

Could you now look at the following compound, please?
input: Request the reported CC50 at 24 h associated with CC(C)(C)C(=O)OCn1c(=O)c(C#Cc2ccc3c4cccc5cccc(c6cccc2c63)c54)cn(CC(=O)NCCCO)c1=O
output: 19

---

System: Tick-borne encephalitis virus
test: Antiviral activity against TBEV Absettarov infected in PEK cells assessed as plaque reduction preincubated for 1 hr followed by overlaying with 1.26% methylcellulose and measured after 6 days by gentian violet staining-based assay
Type: functional, organism-based
Catalogue of pEC50 readings, one per entry.
Recall that pEC50 is obtained by taking minus log10 of the concentration measured in molar.

// worked examples, pEC50 included
input: Request the reported pEC50 associated with O=C(Cn1cc(C#Cc2ccc3c4cccc5cccc(c6cccc2c63)c54)c(=O)[nH]c1=O)N(CCO)CCO
output: 8.15

input: Request the reported pEC50 associated with O=C(Cn1cc(C#Cc2ccc3c4cccc5cccc(c6cccc2c63)c54)c(=O)[nH]c1=O)NCCCCCCO
output: 8.21

input: Request the reported pEC50 associated with O=C(Cn1cc(C#Cc2ccc3c4cccc5cccc(c6cccc2c63)c54)c(=O)[nH]c1=O)NCCCO
output: 8.22

Could you now look at the following compound, please?
input: Request the reported pEC50 associated with CCCCNC(=O)Cn1cc(C#Cc2ccc3c4cccc5cccc(c6cccc2c63)c54)c(=O)[nH]c1=O
output: 7.85

---

test: Cytotoxicity against human RD cells assessed as reduction in cell viability after 24 hrs by microscopic method
Assay type: cell-based
Catalogue of CC50 at 24 h readings, one per entry.

input: Request the reported CC50 at 24 h associated with O=C(Cn1cc(C#Cc2ccc3c4cccc5cccc(c6cccc2c63)c54)c(=O)[nH]c1=O)N(CCO)CCO
output: > 104 µM

input: Request the reported CC50 at 24 h associated with O=C(Cn1cc(C#Cc2ccc3c4cccc5cccc(c6cccc2c63)c54)c(=O)[nH]c1=O)NCCCO
output: > 104 µM

Could you now look at the following compound, please?
input: Request the reported CC50 at 24 h associated with O=C(Cn1cc(C#Cc2ccc3c4cccc5cccc(c6cccc2c63)c54)c(=O)[nH]c1=O)NCCCCCO
output: > 104 µM
